Origin of values: patent US20250145665A1

system-under-test: TNFα (Homo sapiens, UniProt P01375)
Sequence (P01375 77-233 limits assumed): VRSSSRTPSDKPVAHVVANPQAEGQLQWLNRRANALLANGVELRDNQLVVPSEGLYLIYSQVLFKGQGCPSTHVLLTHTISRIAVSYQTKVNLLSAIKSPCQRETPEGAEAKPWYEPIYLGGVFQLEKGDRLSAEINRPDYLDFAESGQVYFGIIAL
measurement-protocol: TNF-Induced HEK-Blue Assay
Type: cell-based
condition-set: HEK-Blue-CD40L cells, NF-kB-driven secreted alkaline phosphatase reporter; TNFα 0.5 ng/ml; 18 h; read-out: TNF induced HEK-Blue assay IC50 value
pIC50: −log10 of the molar value. Starred links: 1 amine or outer side, 2 acyl side, 3 side chain; linkers in the order of their positions; H or OH if unused. Positions of bridges follow the written chain, without caps; N, C: chain ends. Non-standard residues stand in square brackets, D forms with d. Residues, ends and D or L forms follow the SMILES beside them. X5 = Cn1nc(C(=O)Nc2ccc(-c3ccc(C[C@H](N[*:1])C(=O)[*:2])cc3)cc2)c2ccccc21; X73 = O=C(O)CCCC(=O)Nc1ccc(-c2ccc(C[C@H](N[*:1])C(=O)[*:2])cc2)cc1; Ala(morpholin-4-yl) = N[C@@H](CN1CCOCC1)C(=O)O; Phe(4-CH2NH2) = NCc1ccc(C[C@H](N)C(=O)O)cc1; Bip = N[C@@H](Cc1ccc(-c2ccccc2)cc1)C(=O)O; Ala(4-THP) = N[C@@H](CC1CCOCC1)C(=O)O; Cha = N[C@@H](CC1CCCCC1)C(=O)O; Sar = CNCC(=O)O
Reported values of pIC50 for individual entries

Some compounds with known pIC50 results, for comparison:
- CC(C)C[C@@H]1NC(=O)[C@H](CCCNC(=N)N)NC(=O)[C@H](C(C)C)NC(=O)[C@@H]2CCCN2C(=O)[C@H](CC(N)=O)NC(=O)[C@H](CCCNC(=N)N)NC(=O)[C@H](CC(=O)O)NC(=O)[C@@H]2CCCN2C(=O)CN(C)C(=O)[C@H](Cc2ccc(-c3ccccc3)cc2)NC(=O)[C@H](Cc2ccc(-c3ccccc3)cc2)NC(=O)[C@H](CN2CCOCC2)NC(=O)CSC[C@@H](C(=O)NCC(N)=O)NC1=O [Example 67] ({CH2CO}-[Ala(morpholin-4-yl)][Bip][Bip][Sar]PDRNPVRLCG-NH2; thioether N-13): 5.70 to 6.70
- CC[C@H](C)[C@@H]1NC(=O)[C@@H](CCCNC(=N)N)NC(=O)[C@H](CC(=O)O)NC(=O)[C@H](Cc2cnc[nH]2)NC(=O)CN(C)C(=O)[C@H](Cc2ccc(-c3ccc(NC(=O)CCCC(=O)O)cc3)cc2)NC(=O)[C@H](Cc2ccc(-c3ccccc3)cc2)NC(=O)[C@H](CC2CCCCC2)NC(=O)CSC[C@@H](C(=O)NCC(N)=O)NC(=O)[C@H](CC(C)C)NC(=O)[C@H](Cc2cnc[nH]2)NC(=O)[C@H](C(C)C)NC(=O)[C@@H]2CCCN2C1=O [Example 324] ({CH2CO}-[Cha][Bip][X73][Sar]HD[dR]IPVHLCG-NH2; thioether N-13): 6.70 to 7.30
- CC(C)C[C@@H]1NC(=O)[C@H](CCCNC(=N)N)NC(=O)[C@H](C(C)C)NC(=O)[C@@H]2CCCN2C(=O)[C@H](C(C)C)NC(=O)[C@@H](CCCNC(=N)N)NC(=O)[C@H](CC(=O)O)NC(=O)[C@@H]2CCCN2C(=O)CN(C)C(=O)[C@H](Cc2ccc(-c3ccc(NC(=O)c4nn(C)c5ccccc45)cc3)cc2)NC(=O)[C@H](Cc2ccc(-c3ccccc3)cc2)NC(=O)[C@H](CC2CCOCC2)NC(=O)CSC[C@@H](C(=O)NCC(N)=O)NC1=O [Example 304] ({CH2CO}-[Ala(4-THP)][Bip][X5][Sar]PD[dR]VPVRLCG-NH2; thioether N-13): > 7.30

Proceeding to the next compound to report its pIC50.
*Q* Name the reported pIC50 value associated with the compound CC(C)C[C@@H]1NC(=O)[C@H](Cc2ccc(CN)cc2)NC(=O)[C@H](C(C)C)NC(=O)[C@@H]2CCCN2C(=O)[C@H](C(C)C)NC(=O)[C@H](CCCNC(=N)N)NC(=O)[C@H](CC(=O)O)NC(=O)[C@@H]2CCCN2C(=O)CN(C)C(=O)[C@H](Cc2ccc(-c3ccccc3)cc2)NC(=O)[C@H](Cc2ccc(-c3ccccc3)cc2)NC(=O)[C@H](Cc2ccccc2)NC(=O)CSC[C@@H](C(=O)NCC(N)=O)NC1=O [Example 36] ({CH2CO}-F[Bip][Bip][Sar]PDRVPV[Phe(4-CH2NH2)]LCG-NH2; thioether N-13)
*A* 5.70 to 6.70

----------
// reported IC50 for each item listed
system-under-test: TNFα (Homo sapiens, UniProt P01375)
measurement-protocol: TNF-Induced HEK-Blue Assay
Type: cell-based
condition-set: HEK-Blue-CD40L cells, NF-kB-driven secreted alkaline phosphatase reporter; TNFα 0.5 ng/ml; 18 h; read-out: TNF induced HEK-Blue assay IC50 value
Starred links: 1 amine or outer side, 2 acyl side, 3 side chain; linkers in the order of their positions; H or OH if unused. Positions of bridges follow the written chain, without caps; N, C: chain ends. Non-standard residues stand in square brackets, D forms with d. Residues, ends and D or L forms follow the SMILES beside them. Bip(4'-COOH) = N[C@@H](Cc1ccc(-c2ccc(C(=O)O)cc2)cc1)C(=O)O; Bip(4'-NHAc) = CC(=O)Nc1ccc(-c2ccc(C[C@H](N)C(=O)O)cc2)cc1; Ala(morpholin-4-yl) = N[C@@H](CN1CCOCC1)C(=O)O; Phe(3-CONH2) = NC(=O)c1cccc(C[C@H](N)C(=O)O)c1; Bip = N[C@@H](Cc1ccc(-c2ccccc2)cc1)C(=O)O; Val(3-OH) = CC(C)(O)[C@H](N)C(=O)O; X82 = C[C@@]1(C(=O)[*:2])CCN1[*:1]; 2Pal = N[C@@H](Cc1ccccn1)C(=O)O; 3Pal = N[C@@H](Cc1cccnc1)C(=O)O; Chg = N[C@H](C(=O)O)C1CCCCC1; Aze = O=C(O)[C@@H]1CCN1; Sar = CNCC(=O)O

Solved entries:
- CC(C)C[C@@H]1NC(=O)[C@H](Cc2ccc(O)cc2)NC(=O)[C@H](C(C)C)NC(=O)CN(C)C(=O)[C@H](C(C)C)NC(=O)[C@@H](CCCNC(=N)N)NC(=O)[C@H](CC(=O)O)NC(=O)[C@H](Cc2ccc(O)cc2)NC(=O)CN(C)C(=O)[C@H](Cc2ccc(-c3ccccc3)cc2)NC(=O)[C@H](Cc2ccc(-c3ccccc3)cc2)NC(=O)[C@H](CN2CCOCC2)NC(=O)CSC[C@@H](C(=O)NCC(N)=O)NC1=O [Example 134] ({CH2CO}-[Ala(morpholin-4-yl)][Bip][Bip][Sar]YD[dR]V[Sar]VYLCG-NH2; thioether N-13): 50 to 200 nM
- CC(C)C[C@@H]1NC(=O)[C@H](Cc2ccc(O)cc2)NC(=O)[C@H](C(C)C)NC(=O)[C@@H]2CCCN2C(=O)[C@H](Cc2cccnc2)NC(=O)[C@H](CCCNC(=N)N)NC(=O)[C@H](CC(=O)O)NC(=O)[C@@H]2CCCN2C(=O)CN(C)C(=O)[C@H](Cc2ccc(-c3ccccc3)cc2)NC(=O)[C@H](Cc2ccc(-c3ccccc3)cc2)NC(=O)[C@H](CN2CCOCC2)NC(=O)CSC[C@@H](C(=O)NCC(N)=O)NC1=O [Example 116] ({CH2CO}-[Ala(morpholin-4-yl)][Bip][Bip][Sar]PDR[3Pal]PVYLCG-NH2; thioether N-13): 50 to 200 nM
- CC(C)C[C@@H]1NC(=O)[C@H](CCCNC(=N)N)NC(=O)[C@H](C2CCCCC2)NC(=O)[C@@H]2CCCN2C(=O)[C@H](C(C)C)NC(=O)[C@H](CCCNC(=N)N)NC(=O)[C@H](CC(=O)O)NC(=O)[C@@H]2CCCN2C(=O)CN(C)C(=O)[C@H](Cc2ccc(-c3ccccc3)cc2)NC(=O)[C@H](Cc2ccc(-c3ccccc3)cc2)NC(=O)[C@H](CN2CCOCC2)NC(=O)CSC[C@@H](C(=O)NCC(N)=O)NC1=O [Example 207] ({CH2CO}-[Ala(morpholin-4-yl)][Bip][Bip][Sar]PDRVP[Chg]RLCG-NH2; thioether N-13): 200 to 2000 nM
- CC(=O)Nc1ccc(-c2ccc(C[C@@H]3NC(=O)[C@H](Cc4ccc(-c5ccccc5)cc4)NC(=O)[C@H](C(C)(C)O)NC(=O)CSC[C@@H](C(=O)NCC(N)=O)NC(=O)[C@H](CC(C)C)NC(=O)[C@H](Cc4ccc(O)cc4)NC(=O)[C@H](C(C)C)NC(=O)[C@@H]4CCCN4C(=O)[C@H](C(C)C)NC(=O)[C@@H](CCCNC(=N)N)NC(=O)[C@H](CC(=O)O)NC(=O)[C@H](Cc4ccccn4)NC(=O)CN(C)C3=O)cc2)cc1 [Example 175] ({CH2CO}-[Val(3-OH)][Bip][Bip(4'-NHAc)][Sar][2Pal]D[dR]VPVYLCG-NH2; thioether N-13): < 50 nM

*Q* Any idea what IC50 came out for CC(C)[C@@H]1NC(=O)[C@H](CCCNC(=N)N)NC(=O)[C@H](C(C)C)NC(=O)[C@@H]2CCCN2C(=O)[C@H](C(C)C)NC(=O)[C@H](CCCNC(=N)N)NC(=O)[C@H](CC(=O)O)NC(=O)[C@@H]2CCCN2C(=O)CN(C)C(=O)[C@H](Cc2ccc(-c3ccc(C(=O)O)cc3)cc2)NC(=O)[C@H](Cc2ccc(-c3ccccc3)cc2)NC(=O)[C@H](CN2CCOCC2)NC(=O)CSC[C@@H](C(=O)NCC(N)=O)NC1=O [Example 90] ({CH2CO}-[Ala(morpholin-4-yl)][Bip][Bip(4'-COOH)][Sar]PDRVPVRVCG-NH2; thioether N-13) on TNFα (Homo sapiens, UniProt P01375)?
*A* 50 to 200 nM

*Q* Tell me reported IC50 for CC(C)C[C@@H]1NC(=O)[C@H](CCCNC(=N)N)NC(=O)[C@H](C(C)C)NC(=O)[C@@H]2CCCN2C(=O)[C@H](C(C)C)NC(=O)[C@H](CCCNC(=N)N)NC(=O)[C@H](CC(=O)O)NC(=O)[C@@H]2CCN2C(=O)CN(C)C(=O)[C@H](Cc2ccc(-c3ccccc3)cc2)NC(=O)[C@H](Cc2ccc(-c3ccccc3)cc2)NC(=O)[C@H](Cc2ccccc2)NC(=O)CSC[C@@H](C(=O)NCC(N)=O)NC1=O [Example 46] ({CH2CO}-F[Bip][Bip][Sar][Aze]DRVPVRLCG-NH2; thioether N-13) , tested with TNFα (Homo sapiens, UniProt P01375).
*A* 200 to 2000 nM

*Q* API: value(readout= IC50, system= TNFα (Homo sapiens, UniProt P01375), query= CC(C)C[C@@H]1NC(=O)[C@H](Cc2ccc(O)cc2)NC(=O)[C@H](C(C)C)NC(=O)[C@]2(C)CCN2C(=O)[C@H](C(C)C)NC(=O)[C@H](CCCNC(=N)N)NC(=O)[C@H](CC(=O)O)NC(=O)[C@H](Cc2ccc(O)cc2)NC(=O)CN(C)C(=O)[C@H](Cc2ccc(-c3ccccc3)cc2)NC(=O)[C@H](Cc2ccc(-c3ccccc3)cc2)NC(=O)[C@H](CN2CCOCC2)NC(=O)CSC[C@@H](C(=O)NCC(N)=O)NC1=O [Example 93] ({CH2CO}-[Ala(morpholin-4-yl)][Bip][Bip][Sar]YDRV[X82]VYLCG-NH2; thioether N-13) )
*A* 50 to 200 nM

*Q* Field: IC50 (TNFα (Homo sapiens, UniProt P01375)). Entry: CC(C)C[C@@H]1NC(=O)[C@H](CCCNC(=N)N)NC(=O)[C@H](C(C)C)NC(=O)[C@@H]2CCCN2C(=O)[C@H](C(C)C)NC(=O)[C@H](CCCNC(=N)N)NC(=O)[C@H](CC(=O)O)NC(=O)[C@@H]2CCCN2C(=O)CN(C)C(=O)[C@H](Cc2ccc(-c3ccccc3)cc2)NC(=O)[C@H](Cc2ccc(-c3ccccc3)cc2)NC(=O)[C@H](Cc2cccc(C(N)=O)c2)NC(=O)CSC[C@@H](C(=O)NCC(N)=O)NC1=O [Example 35] ({CH2CO}-[Phe(3-CONH2)][Bip][Bip][Sar]PDRVPVRLCG-NH2; thioether N-13)
*A* 200 to 2000 nM
